B1: library; numbered along this chain (parent)
chain: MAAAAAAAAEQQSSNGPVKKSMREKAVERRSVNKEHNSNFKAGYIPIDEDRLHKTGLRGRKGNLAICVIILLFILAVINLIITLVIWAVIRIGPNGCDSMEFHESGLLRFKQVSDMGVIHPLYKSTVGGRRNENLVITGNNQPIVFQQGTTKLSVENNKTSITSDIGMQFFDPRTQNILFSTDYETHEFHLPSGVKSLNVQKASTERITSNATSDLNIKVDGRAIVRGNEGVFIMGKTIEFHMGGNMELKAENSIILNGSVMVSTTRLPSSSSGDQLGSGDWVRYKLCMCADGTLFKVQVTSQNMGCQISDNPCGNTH

variants of: B1; assay: SGCB cell-surface expression functional score (HA stain, bin4 vs bin1, normalised to synonymous) (log10 ratio); higher = more cell-surface SGCB (functional)
Entries and their measured SGCB cell-surface expression functional score (log10) follow.
ASSAY_METRIC: SGCB cell-surface expression functional score (log10)

{"MUTATION_NOTATION": "L80I", "RESULT_VALUE": -0.01}
{"MUTATION_NOTATION": "N15Y", "RESULT_VALUE": 0.13}
{"MUTATION_NOTATION": "K20T", "RESULT_VALUE": 0}
{"MUTATION_NOTATION": "H190G", "RESULT_VALUE": 0.07}
{"MUTATION_NOTATION": "I119K", "RESULT_VALUE": -1.36}
{"MUTATION_NOTATION": "N211D", "RESULT_VALUE": -0.68}
{"MUTATION_NOTATION": "G139Y", "RESULT_VALUE": -1.89}
{"MUTATION_NOTATION": "G167S", "RESULT_VALUE": -1.64}
{"MUTATION_NOTATION": "N217C", "RESULT_VALUE": -0.04}
{"MUTATION_NOTATION": "R223G", "RESULT_VALUE": 0.12}
{"MUTATION_NOTATION": "V18R", "RESULT_VALUE": 0.23}
{"MUTATION_NOTATION": "I90T", "RESULT_VALUE": 0.06}
{"MUTATION_NOTATION": "R23E", "RESULT_VALUE": 0.28}
{"MUTATION_NOTATION": "G231Y", "RESULT_VALUE": 0.68}
{"MUTATION_NOTATION": "A291M", "RESULT_VALUE": -2.2}
{"MUTATION_NOTATION": "R174W", "RESULT_VALUE": -0.75}
{"MUTATION_NOTATION": "G194K", "RESULT_VALUE": 0.01}
{"MUTATION_NOTATION": "D115L", "RESULT_VALUE": -1.17}
{"MUTATION_NOTATION": "N134C", "RESULT_VALUE": -0.25}
{"MUTATION_NOTATION": "Y123M", "RESULT_VALUE": -0.24}
{"MUTATION_NOTATION": "L198F", "RESULT_VALUE": 0.25}
{"MUTATION_NOTATION": "H53S", "RESULT_VALUE": -0.22}
{"MUTATION_NOTATION": "G222E", "RESULT_VALUE": 0.65}
{"MUTATION_NOTATION": "L257P", "RESULT_VALUE": -0.89}
{"MUTATION_NOTATION": "E252W", "RESULT_VALUE": 0.117}
{"MUTATION_NOTATION": "I255D", "RESULT_VALUE": -0.53}
{"MUTATION_NOTATION": "T266Q", "RESULT_VALUE": 1.04}
{"MUTATION_NOTATION": "I66R", "RESULT_VALUE": 0.43}
{"MUTATION_NOTATION": "M168S", "RESULT_VALUE": -1.21}
{"MUTATION_NOTATION": "V127Q", "RESULT_VALUE": -1.97}
{"MUTATION_NOTATION": "V232A", "RESULT_VALUE": -0.53}
{"MUTATION_NOTATION": "T151Q", "RESULT_VALUE": -0.98}
{"MUTATION_NOTATION": "T175H", "RESULT_VALUE": 0.32}
{"MUTATION_NOTATION": "L153M", "RESULT_VALUE": 0.18}
{"MUTATION_NOTATION": "E101Q", "RESULT_VALUE": -0.15}
{"MUTATION_NOTATION": "A3S", "RESULT_VALUE": -0.23}
{"MUTATION_NOTATION": "E104S", "RESULT_VALUE": 0.39}
